assay: Pharmacokinetics in mice; type: in vivo, BALB/c hairy mice; conditions: both sexes, BALB/c hairy, mouse, plasma, IV 2 mg/kg, 7 h, read-out: Plasma Conc.

[
  {
    "COMPOUND SMILES": "Cc1cnc(N[C@H]2CC[C@H](N)CC2)nc1-c1cnc2ccc(-c3ccccc3)cn12",
    "concentration at 7 h": "2.4 ng/mL"
  }
]

###

assay: Pharmacokinetics in mice; format: in vivo, BALB/c hairy mice; conditions: both sexes, BALB/c hairy, mouse, whole blood, intravenous, 2 mg/kg, plasma clearance divided by B/P, read-out: blood clearance (converted)
PARAMETER: clearance (mL/min/kg)

[
  {
    "COMPOUND SMILES": "Cc1cnc(N[C@H]2CC[C@H](N)CC2)nc1-c1cnc2ccc(-c3ccccc3)cn12",
    "UNIT ABBREV": "mL/min/kg",
    "QUANTITATIVE READOUT": 51.7
  }
]
